Biological target: epoxysqualene cyclase of the hepatic microsomes (Rattus norvegicus, UniProt P48450)
Construct: Rat hepatic microsomes are used as the enzyme source; from tissue; host or cells: liver microsomes of male Wistar rats
Sequence (P48450 1-733): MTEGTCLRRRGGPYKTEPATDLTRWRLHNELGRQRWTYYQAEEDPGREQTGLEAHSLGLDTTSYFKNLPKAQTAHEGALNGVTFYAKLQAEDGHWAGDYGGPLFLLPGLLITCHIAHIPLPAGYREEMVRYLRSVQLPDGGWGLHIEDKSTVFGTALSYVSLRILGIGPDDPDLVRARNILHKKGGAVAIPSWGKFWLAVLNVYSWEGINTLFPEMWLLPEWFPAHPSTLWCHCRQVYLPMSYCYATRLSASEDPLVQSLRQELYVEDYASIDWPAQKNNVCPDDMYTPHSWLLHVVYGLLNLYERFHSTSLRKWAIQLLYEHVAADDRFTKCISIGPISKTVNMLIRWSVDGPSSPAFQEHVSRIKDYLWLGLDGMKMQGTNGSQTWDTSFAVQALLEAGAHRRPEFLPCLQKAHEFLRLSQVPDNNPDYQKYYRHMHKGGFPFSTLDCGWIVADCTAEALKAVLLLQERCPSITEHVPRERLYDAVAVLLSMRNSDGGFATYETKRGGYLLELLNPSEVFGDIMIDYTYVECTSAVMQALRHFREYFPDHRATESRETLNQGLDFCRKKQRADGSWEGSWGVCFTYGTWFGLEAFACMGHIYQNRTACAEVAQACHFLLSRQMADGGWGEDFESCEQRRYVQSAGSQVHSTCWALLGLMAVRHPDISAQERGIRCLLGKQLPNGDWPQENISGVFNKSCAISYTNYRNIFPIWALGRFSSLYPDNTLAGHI
Experiment: Epoxysqualene cyclase inhibition: lanosterol formed from R,S-2,3-oxidosqualene by rat hepatic microsomes
Type: biochemical, male Wistar rats
Conditions: 25.10^-6 mol of test product per liter; 60 minutes at 37° C., pH=7.4; rat hepatic microsomes
Short version: Percentage inhibition of the amount of lanosterol formed at least 90% is Criterion met, less is Criterion not met.

Query: Is Percentage inhibition of the amount of lanosterol formed at least 90%? Consider CC(Cc1ccc(C(C)C)cc1)CN1CC=C2C(C)(C)[C@@H](N(C)C)CC[C@]2(C)C1 (some centres unmarked) [Example 25]
Reply: Criterion met

Query: In plain terms: is recorded Percentage inhibition of the amount of lanosterol formed at least 90% for CCCCCCCCCCCCN1CC=C2C(C)(C)[C@@H](N)CC[C@]2(C)C1 (relative stereo) [Example 14] ?
Reply: Criterion not met

Query: Does the compound CCCCCCCCCCCCN1CC=C2C(C)(C)[C@H](N(C)C)CC[C@]2(C)C1 (relative stereo) [Example 18] have recorded Percentage inhibition of the amount of lanosterol formed that is 90% or more?
Reply: Criterion not met

Query: Check this compound for Percentage inhibition of the amount of lanosterol formed at or above 90%: CN(C)[C@H]1CC[C@]2(C)CN(CC(O)CO)CC=C2C1(C)C (some centres unmarked) [Example 22]
Reply: Criterion not met

Query: Could you tell me if the measured Percentage inhibition of the amount of lanosterol formed of CN(C)[C@H]1CC[C@]2(C)CN(CC=Cc3ccccc3)CC=C2C1(C)C (relative stereo) [Example 23] reaches 90% or more?
Reply: Criterion met

Query: Entry CCCN1CC=C2C(C)(C)[C@@H](N(C)C)CC[C@]2(C)C1 (relative stereo) [Example 21] : is its Percentage inhibition of the amount of lanosterol formed no less than 90%?
Reply: Criterion met

Query: Textbook exercise: given the entry CCCCCCCCCCCCN1CC=C2C(C)(C)[C@@H](NC)CC[C@]2(C)C1 (relative stereo) [Example 12] , state whether its Percentage inhibition of the amount of lanosterol formed is greater than or equal to 90%.
Reply: Criterion not met

Query: I'd appreciate it if you could say whether CCCCCCCCCCCCN1CC=C2C(C)(C)[C@@H](N(C)C)CC[C@]2(C)C1 (relative stereo) [Example 17] has Percentage inhibition of the amount of lanosterol formed at least equal to 90%.
Reply: Criterion met

Query: Answer whether Percentage inhibition of the amount of lanosterol formed of CC1(C)C2=CCN(CC(O)CO)C[C@@]2(C)CC[C@@H]1NC(=O)C(F)(F)F (some centres unmarked) [Example 6] is greater than or equal to 90%.
Reply: Criterion not met
